Method: Effect of food on oral absorption of IVa in dogs after Iab or IVa capsules
Type: in vivo, dog
Condition: dog, plasma, po, 20 mg/kg, IVa after Iab dry-filled capsules, Fed
Assay Endpoint: half-life (h)
State the answer as a number, implicitly in h.

Data request: Consider the compound shown here: COc1ncc(OC)c2c(C(=O)C(=O)N3CCN(C(=O)c4ccccc4)CC3)c[nH]c12 What is its recorded half-life?
Data returned: 3.2

====

Method: IV and PO pharmacokinetic studies of prodrug salts (Iab, Ibb, Icb) in the monkey, with historical parent data
Assay type: in vivo, cynomolgus monkeys
Condition: cynomolgus monkey, plasma, po, 5 mg/kg; read-out: T1/2 (converted)
Assay Endpoint: half-life (h)
State the answer as a number, implicitly in h.

Data request: Consider the compound shown here: O=C(C(=O)N1CCN(C(=O)c2ccccc2)CC1)c1c[nH]c2c(-n3ccnn3)ncc(F)c12 What is its recorded half-life?
Data returned: 11
